target_system: T1, mouse IL-18 receptor alpha (mouse, UniProt Q61098 20-326, limits assumed)
T1 construct: also called Mouse IL18Ra; mouse IL-18R alpha
T1 sequence (looked up): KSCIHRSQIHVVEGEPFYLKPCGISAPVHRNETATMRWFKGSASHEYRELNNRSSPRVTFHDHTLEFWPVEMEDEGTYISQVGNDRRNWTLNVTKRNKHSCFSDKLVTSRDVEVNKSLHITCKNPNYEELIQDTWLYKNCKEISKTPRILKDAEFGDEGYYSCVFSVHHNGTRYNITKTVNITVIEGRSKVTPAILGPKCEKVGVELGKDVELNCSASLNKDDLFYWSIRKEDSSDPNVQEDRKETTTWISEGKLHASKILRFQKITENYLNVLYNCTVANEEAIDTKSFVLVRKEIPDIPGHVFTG
experimental_details: Octet BLI, monoFc scaffold
Give measured pKd for each item. Keep answers brief.
Give bare numbers, as −log10 of the molar value.

binder	recorded_number
mouse IL-18 G3T, K52A on monoFc scaffold (Fc fusion, not shown: small tags and cut ends) NFTRLHSTTAVIRNINDQVLFVDKRQPVFEDMTDIDQSASEPQTRLIIYMYADSEVRGLAVTLSVKDSKMSTLSSKNKIISFEEMDPPENIDDIQSDLIFFQKRVPGHNKMEFESSLYEGHFLACQKEDDAFKLILKKKDENGDKSVMFTLTNLHQSNGGPSVFLFPPKPKDTLMISRTPEVTCVVVDVSHEDPEVKFNWYVDGVEVHNAKTKPREEQYNSTYRVVSVLTVLHQDWLNGKEYKCKVSNKALPAPIEKTISKAKGQPREPQVYTLPPSREEMTKNQVNLTCLVKGFYPSDIAVEWESNGQPENNYKTTPPVLDSDGSFFLNSTLTVDKSRWQQGNVFSCSVMHEALHNHYTQKSLSLS	7.01

Hi! Can you tell me pKd for each of these binders?
1. mouse IL-18 G3T/H6K/L59K on monoFc scaffold (Fc fusion, not shown: small tags and cut ends) NFTRLKSTTAVIRNINDQVLFVDKRQPVFEDMTDIDQSASEPQTRLIIYMYKDSEVRGKAVTLSVKDSKMSTLSSKNKIISFEEMDPPENIDDIQSDLIFFQKRVPGHNKMEFESSLYEGHFLASQKEDDAFKLILKKKDENGDKSVMFTLTNLHQSNGGPSVFLFPPKPKDTLMISRTPEVTCVVVDVSHEDPEVKFNWYVDGVEVHNAKTKPREEQYNSTYRVVSVLTVLHQDWLNGKEYKCKVSNKALPAPIEKTISKAKGQPREPQVYTLPPSREEMTKNQVNLTCLVKGFYPSDIAVEWESNGQPENNYKTTPPVLDSDGSFFLNSTLTVDKSRWQQGNVFSCSVMHEALHNHYTQKSLSLS
2. mouse IL-18 G3T/L59K on monoFc scaffold (Fc fusion, not shown: small tags and cut ends) NFTRLHSTTAVIRNINDQVLFVDKRQPVFEDMTDIDQSASEPQTRLIIYMYKDSEVRGKAVTLSVKDSKMSTLSSKNKIISFEEMDPPENIDDIQSDLIFFQKRVPGHNKMEFESSLYEGHFLASQKEDDAFKLILKKKDENGDKSVMFTLTNLHQSNGGPSVFLFPPKPKDTLMISRTPEVTCVVVDVSHEDPEVKFNWYVDGVEVHNAKTKPREEQYNSTYRVVSVLTVLHQDWLNGKEYKCKVSNKALPAPIEKTISKAKGQPREPQVYTLPPSREEMTKNQVNLTCLVKGFYPSDIAVEWESNGQPENNYKTTPPVLDSDGSFFLNSTLTVDKSRWQQGNVFSCSVMHEALHNHYTQKSLSLS

7.89
7.91

Item under review: mouse IL-18 G3V/L59M on monoFc scaffold (Fc fusion, not shown: small tags and cut ends) NFVRLHSTTAVIRNINDQVLFVDKRQPVFEDMTDIDQSASEPQTRLIIYMYKDSEVRGMAVTLSVKDSKMSTLSSKNKIISFEEMDPPENIDDIQSDLIFFQKRVPGHNKMEFESSLYEGHFLASQKEDDAFKLILKKKDENGDKSVMFTLTNLHQSNGGPSVFLFPPKPKDTLMISRTPEVTCVVVDVSHEDPEVKFNWYVDGVEVHNAKTKPREEQYNSTYRVVSVLTVLHQDWLNGKEYKCKVSNKALPAPIEKTISKAKGQPREPQVYTLPPSREEMTKNQVNLTCLVKGFYPSDIAVEWESNGQPENNYKTTPPVLDSDGSFFLNSTLTVDKSRWQQGNVFSCSVMHEALHNHYTQKSLSLS . Reported pKd?
7.76
